Ref: patent US20070128217A1

test system: antibodies in sera from SARS patients (sera 1a, 1b, 2, 6, 37, 62, London, SARS-yellow, SARS-green); format: binding, human
assay.endpoint: Binding of serum 6 to linear peptides of protein E of SARS-CoV Urbani
Provide a numeric answer; units are not to be included.

ordered_residues=VFLLVTLAILTALRL numeric_result=0.5
ordered_residues=ALRLCAYCCNIVNVS numeric_result=0.7

Next item in the queue.
Sample "LAFVVFLLVTLAILT" — what was its Binding of serum 6 to linear peptides of protein E of SARS-CoV Urbani?
0.7

====

// reported Binding of Control Serum Blood-Bank to Looped peptides per item
system: control sera (pooled serum of ten healthy LUMC hospital workers; commercial negative donor pooled serum from the Dutch bloodbank); type: binding, human
Provide a numeric answer; units are not to be included.

ordered_residues=SFVSEETGTLIVNSV numeric_result=0.7
ordered_residues=YSFVSEETGTLIVNS numeric_result=0.6
ordered_residues=VFLLVTLAILTALRL numeric_result=0.4
ordered_residues=LFLAFVVFLLVTLAI numeric_result=0.6
ordered_residues=FVSEETGTLIVNSVL numeric_result=0.8
ordered_residues=FLLVTLAILTALRLC numeric_result=0.5

Next item in the queue.
Sample "LTALRLCAYCCNIVN" — what was its Binding of Control Serum Blood-Bank to Looped peptides?
0.7
